Test system: OVCAR-5 ovarian
protocol_text: NCI-60 one-dose screen, 48 h (100 = growth as untreated, 0 = no growth, -100 = all killed)
measurement_conditions: 10 µM unless noted
Description: Growth inhibition of the OVCAR-5 human tumor cell line is measured as a screen for anti-cancer activity. Cells are grown in 96 well plates and exposed to the test compound for 48 hours. Compounds are tested at a single concentration, which is 10^-5 M for most compounds. The reported endpoint is percent growth (GI% or GIPRCNT), where numbers from 0 - 100% represent growth inhibition, and numbers from -100% - 0 represent cell death. For example, a value of 40 represents 60% growth inhibition. […]
About 83,000 compounds went through this panel and 20% of them were active in at least one assay; those are over-represented in the sample as a whole.
So I've got a bunch of molecules here, and I need their growth values.
One number for each entry, in %.

Example results:
>  <molecule>
Cc1ccc(Cl)cc1NC(=O)c1sc2nc3c(cc2c1N)C(=O)CCC3

>  <growth [%]>
94.2

$$$$
>  <molecule>
CCN1C(=O)N(CC)C2C1N=C(SCc1ccc(Cl)cc1)N2/N=C/C=C/c1ccccc1OC (configuration not stated)

>  <growth [%]>
98.6

$$$$
>  <molecule>
CCN1CCN(c2cc(C)nc(N(CCNc3ccnc4cc(Cl)ccc34)Cc3ccc4c(c3)OCO4)n2)CC1

>  <growth [%]>
40.5

$$$$
>  <molecule>
N#CSc1c[nH]c2cccc(/C=C/C(=O)/C=C(O)/C=C/c3cccc4[nH]cc(SC#N)c34)c12

>  <growth [%]>
-69.6

$$$$
>  <molecule>
C=C1C(=O)O[C@H]2[C@H]1CC/C(COC(=O)CSCSCC(=O)OC/C1=C/CC[C@@]3(C)O[C@H]3[C@H]3OC(=O)C(=C)[C@@H]3CC1)=C\CC[C@@]1(C)O[C@@H]21

>  <growth [%]>
30.1

$$$$

Please give growth for each item listed below.
1. CN1CCN(CCCOc2cccc3nc(Nc4ccc(F)c(F)c4)ccc23)CC1
2. O=C1/C=C/[C@@H](O)[C@@H]2C[C@@H](O)C[C@H]2/C=C/CCC[C@H](CCO)O1
3. N#C/C(=C\c1cn(Cc2ccccc2)c2ccccc12)C(=O)Nc1ncc(Cc2ccccc2Cl)s1
4. C[C@H](C(=O)N(CCc1ccc(Cl)c(Cl)c1)Cc1cncs1)[C@@H]1CC[C@H](C[C@H](C)n2cc(CN3CCC(c4ccc(Cl)cc4)CC3)nn2)O1
5. COc1ccc(CCN2C(=O)/C(=C/c3ccc(C4Oc5ccccc5C5CC(c6ccccc6)=NN54)cc3)SC2=S)cc1 (configuration not stated)
6. C=CCC(CCCC)(C(=O)OCC)C(=O)OCC

Given back:
[-20.9, 16.1, -2.57, 97, 103, 106]

Kindly give each listed record's growth.
1. CN(Cc1cc(Br)cc(Br)c1O)Cc1cc(Br)cc(Br)c1O
2. CC1(C)N=C(N)N=C(N)N1c1ccc(CCCCc2ccccc2)c(Cl)c1

Given back:
1: 68.9; 2: 28.5

For the 4 molecules below, give their growth values.
1. C=C(CNCCc1ccc(O)cc1)[C@@H]1CC[C@]2(CO)CC[C@]3(C)[C@H](CC[C@@H]4[C@@]5(C)CCC(=O)C(C)(C)[C@@H]5CC[C@]43C)[C@@H]12
2. COc1ccc2cc(-c3ccnc4c(N=Nc5ccc(Cl)cc5)c(N)nn34)ccc2c1
3. O=C1c2ccccc2C(=O)c2c1c(C(=O)NCc1ccccc1)c1ccccn21
4. CCOC(=O)c1ccccc1-c1c2ccc(=[N+](C)C)cc-2oc2cc(N(C)C)ccc12

Given back:
[90, 99.7, 111, 4.53]

###

Test system: HOP-92 NSCLC
protocol_text: NCI-60 one-dose screen, 48 h
measurement_conditions: 10 µM unless noted
The panel holds about 83,000 compounds, 20% with a hit somewhere; the sample as a whole holds those more often. Calls of active or inactive are those of the source. The calls were made as follows: active = growth percent below 10; inactive = the rest.
// classify into label 1 for active, label 0 for inactive

Known results for compounds:
>  <smiles_entry>
Cc1c2cccnc2c(C)c2c1c1cc(CO)ccc1n2C

>  <class_label>
label 0

$$$$
>  <smiles_entry>
Cc1ccc(-c2nc(-c3cn(C)c4ncccc34)cs2)cc1

>  <class_label>
label 1

$$$$
>  <smiles_entry>
CCOc1cccc(/C=N/NC(=O)c2cccc(Nc3ccnc(C(F)(F)F)c3)c2)c1O

>  <class_label>
label 0

$$$$

Asked: // return assay outcome for "O=C1c2ccccc2C(=O)c2c1cc1c(c2[N+](=O)[O-])OCO1"
Given back: label 1

Asked: Entry to check: "CC(C)(C)n1cc(-c2ccnc(NCCCNS(=O)(=O)c3cccc4ccccc34)c2)c(-c2cccc(F)c2)n1"
Given back: label 0

###

Assign growth to each entry below.
Test system: BT-549 breast
protocol_text: NCI-60 one-dose screen, 48 h (100 = growth as untreated, 0 = no growth, -100 = all killed)
measurement_conditions: 10 µM unless noted
This is part of a sample that, as a whole, favours compounds with a hit. Of some 83,000 tested, about 20% had one in any assay.
Numbers only, in %.

>  <compound>
C/C(=N\O)c1ccc(NC(=O)CSc2nnc(-c3cc(-c4ccc(S(C)(=O)=O)cc4)nc4ccccc34)n2-c2ccccc2)cc1

>  <growth, %>
88.2

$$$$
>  <compound>
COc1cc(/C=N/Nc2ccc(Br)cc2)cc(OC)c1OC

>  <growth, %>
95.1

$$$$
>  <compound>
CCc1ccc(CCC(=O)Nc2ncc(Cc3cc(Cl)ccc3Cl)s2)o1

>  <growth, %>
36.4

$$$$
>  <compound>
CC1=CC(c2ccco2)=C2C(N)=NNC2N1 (stereo not given)

>  <growth, %>
100

$$$$

With those in mind, consider the next compound.
Asked: # lookup: growth of "COc1ccc(C#Cc2ccc(=O)oc2-c2cc(OC)c(OC)c(OC)c2)cc1O"
Given back: 44.8

###

Test system: A549/ATCC NSCLC
protocol_text: NCI-60 one-dose screen, 48 h (100 = growth as untreated, 0 = no growth, -100 = all killed)
measurement_conditions: 10 µM unless noted
About 83,000 compounds went through this panel and 20% of them were active in at least one assay; those are over-represented in the sample as a whole.
Assign growth to each entry below.
Answers are plain numbers, in %.

>  <compound>
[2H]C([2H])([2H])Oc1ccc(F)cc1/C=C/C(=O)/C=C(O)/C=C/c1cc(F)ccc1OC([2H])([2H])[2H]

>  <target_desc>
A549/ATCC NSCLC

>  <growth / %>
93.7

$$$$
>  <compound>
C=CN(C(=O)N1CCN(c2cc3c(cc2F)c(=O)c(C(=O)O)cn3C2CC2)CC1)c1nc(-c2ccc(OC)cc2)cs1

>  <target_desc>
A549/ATCC NSCLC

>  <growth / %>
16.6

$$$$
>  <compound>
CC1(C)CC2=C3C=C[C@@H]4[C@@]5(C)CCC(=O)C(C)(C)[C@@H]5CC[C@@]4(C)[C@]3(C)CC[C@@]2(C(=O)O)C[C@H]1O

>  <target_desc>
A549/ATCC NSCLC

>  <growth / %>
26.3

$$$$

Give growth for each of the items listed below.
1. CCN1C2CCC1/C(=C\c1ccc(F)cc1)C(=O)/C2=C/c1ccc(F)cc1
2. C=C1C(=O)O[C@H]2[C@H]1CC/C(COC(=O)c1ccc(C(=O)O)s1)=C\CC[C@@]1(C)O[C@@H]21
3. O=C(/C=C/C12c3ccccc3C(c3ccccc31)C1C(=O)NC(=O)C12)c1ccc(Br)cc1 (stereo unspecified)
4. COc1cc(OC)c2sc(-c3ccc(-n4cncc4-c4cc(OC)c(OC)c(OC)c4)cc3)nc2c1
5. COc1ccc2nc(Cl)c(/C=C3\CC(c4ccccc4)=NN(c4ccccc4)C3=O)cc2c1

Given back:
52.6
80.3
50.2
50.9
65.2

###

Tested on: KM12 colon
protocol_text: NCI-60 one-dose screen, 48 h (100 = growth as untreated, 0 = no growth, -100 = all killed)
measurement_conditions: 10 µM unless noted
Compounds without any hit were thinned out: in the full panel of roughly 83,000, 20% have a hit.
assay_metric: growth (%)
One number for each entry, in %.

Batch request: growth for each of the following compounds.
1. COc1cc(C2C(C(=O)OCc3ccccc3)=C(C)NC(C)=C2C(=O)OCc2ccccc2)cc(OC)c1OC
2. CCCCCCCC/C=C\CCCCCCCCOc1ccc(CC(=O)NCC[N+]2(C)CCOCC2)cc1
3. CC1(C)CC[C@]2(CO)CC[C@]3(C)[C@H](CC[C@@H]4[C@@]5(C)CCCNC(C)(C)[C@@H]5CC[C@]43C)[C@H]2[C@H]1O
4. CC1=C(CCC(C)NCc2ccc(OCCCN3CCCCC3)cc2)C(C)(C)CCC1 (stereo not drawn)
5. C[C@]1(O)CC(=O)[C@]2(O)C3=C(C=C[C@]2(O)C1)C(=O)c1c(O)cccc1C3=O
6. C=C1C(=O)O[C@H]2[C@H]1CC/C(CNC(=O)c1c[nH]c3ccc(F)cc13)=C\CC[C@@]1(C)O[C@@H]21
7. CN1CCN(C(=O)C(C)(C)c2ccc(C(=O)Nc3cn4cc(-c5ccncc5)ccc4n3)cc2)CC1
8. COc1ccc2cc(-c3ccnc4c(N=Nc5ccc(Cl)cc5)c(N)nn34)ccc2c1

Given back:
1. 19.4
2. 51.3
3. 77.9
4. -80
5. 77.8
6. 42.4
7. 7.82
8. 103
